The reported measurements were obtained from ChEMBL document CHEMBL4007428.

- EXPERIMENTAL PROTOCOL: Stability in mouse plasma assessed as parent compound remaining after 24 hrs
- Format: ADME, cell-free
- TEST PARAMETERS: read-out: Stability
So I've got a bunch of compounds here, and I need their remaining at 24 h values.
A number alone suffices; assume %.

Query: Please look up its remaining at 24 h: CC(C)[C@H](NC(=O)C(Cc1ccc(O)cc1)NC(=O)CCc1ccc(O)cc1)C(=O)N[C@@H](CCCNC(=N)N)C(=O)c1nc2ccccc2s1 (single isomer, unassigned)
Reply: 40

Query: Please look up its remaining at 24 h: CC(C)[C@H](NC(=O)C(Cc1ccc(O)cc1)NC(=O)[C@@H](N)Cc1ccc(O)cc1)C(=O)N[C@@H](CCCNC(=N)N)C(=O)c1nc2ccccc2s1 (single isomer, unassigned)
Reply: 0

====

ASSAY ENDPOINT: Ki (nM)
A number alone suffices; assume nM.

Query: Short answer please: Ki, Suppressor of tumorigenicity 14 protein (Homo sapiens, UniProt Q9Y5Y6), entry N=C(N)NCCC[C@H](NC(=O)[C@H](Cc1cscn1)NC(=O)C(Cc1ccc(O)cc1)NC(=O)[C@@H](N)Cc1ccc(O)cc1)C(=O)c1nc2ccccc2s1 (single isomer, unassigned)
Reply: 20

Query: Short answer please: Ki, Suppressor of tumorigenicity 14 protein (Homo sapiens, UniProt Q9Y5Y6), entry CC[C@H](C)[C@H](NC(=O)[C@H](CCc1ccccc1)NC(=O)CCc1ccccc1)C(=O)N[C@@H](CCCNC(=N)N)C(=O)c1nc2ccccc2s1
Reply: 230

Query: Short answer please: Ki, Suppressor of tumorigenicity 14 protein (Homo sapiens, UniProt Q9Y5Y6), entry CC(C)[C@H](NC(=O)C(Cc1ccc(O)cc1)NC(=O)CCc1ccccc1)C(=O)N[C@@H](CCCNC(=N)N)C(=O)c1nc2ccccc2s1 (single isomer, unassigned)
Reply: 43

Query: Short answer please: Ki, Suppressor of tumorigenicity 14 protein (Homo sapiens, UniProt Q9Y5Y6), entry N=C(N)NCCC[C@H](NC(=O)[C@H](Cc1c[nH]c2ccccc12)NC(=O)C(Cc1ccc(O)cc1)NC(=O)[C@@H](N)Cc1ccc(O)cc1)C(=O)c1nc2ccccc2s1 (single isomer, unassigned)
Reply: 5.6

====

- EXPERIMENTAL SYSTEM: Transmembrane protease serine 6 (Homo sapiens)
- Sequence (Q8IU80 whole entry): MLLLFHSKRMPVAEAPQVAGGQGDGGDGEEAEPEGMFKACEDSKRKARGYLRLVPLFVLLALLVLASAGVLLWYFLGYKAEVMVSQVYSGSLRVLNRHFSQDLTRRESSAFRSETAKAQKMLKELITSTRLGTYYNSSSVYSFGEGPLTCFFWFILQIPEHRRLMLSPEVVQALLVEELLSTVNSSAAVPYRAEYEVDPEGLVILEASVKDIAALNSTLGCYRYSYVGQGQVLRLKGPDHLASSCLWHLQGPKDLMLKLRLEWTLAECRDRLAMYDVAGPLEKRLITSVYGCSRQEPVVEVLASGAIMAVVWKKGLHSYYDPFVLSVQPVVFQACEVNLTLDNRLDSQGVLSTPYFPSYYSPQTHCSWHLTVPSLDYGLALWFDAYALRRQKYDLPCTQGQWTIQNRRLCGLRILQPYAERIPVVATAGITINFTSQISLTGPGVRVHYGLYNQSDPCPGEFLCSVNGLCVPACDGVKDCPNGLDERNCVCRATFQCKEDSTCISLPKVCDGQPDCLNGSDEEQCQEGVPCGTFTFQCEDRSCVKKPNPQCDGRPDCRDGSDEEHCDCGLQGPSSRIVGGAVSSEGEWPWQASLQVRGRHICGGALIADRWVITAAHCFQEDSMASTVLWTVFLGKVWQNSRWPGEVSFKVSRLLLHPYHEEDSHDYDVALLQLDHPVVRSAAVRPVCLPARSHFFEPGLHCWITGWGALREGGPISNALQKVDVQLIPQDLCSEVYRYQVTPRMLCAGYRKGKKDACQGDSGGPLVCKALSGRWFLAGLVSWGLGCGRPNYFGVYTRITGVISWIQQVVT
- EXPERIMENTAL PROTOCOL: Inhibition of recombinant human C-terminal V5-His-tagged matriptase-2 expressed in Drosophila S2 cells using Boc-Gln-Ala-ArgAMC as substrate measured for 1200 mins by fluorescence assay
ASSAY ENDPOINT: Ki (nM)
A number alone suffices; assume nM.

Query: Please look up its Ki: N=C(N)NCCC[C@H](NC(=O)[C@H](Cc1c[nH]c2ccccc12)NC(=O)C(Cc1ccc(O)cc1)NC(=O)[C@@H](N)Cc1ccc(O)cc1)C(=O)c1nc2ccccc2s1 (single isomer, unassigned)
Reply: 3.1

Query: Please look up its Ki: C[C@H](O)[C@H](NC(=O)[C@H](CCc1ccccc1)NC(=O)CCc1ccccc1)C(=O)N[C@@H](CCCNC(=N)N)C(=O)c1nc2ccccc2s1
Reply: 3.1

Query: Please look up its Ki: N=C(N)NCCC[C@H](NC(=O)[C@H](Cc1c[nH]cn1)NC(=O)C(Cc1ccc(O)cc1)NC(=O)[C@@H](N)Cc1ccc(O)cc1)C(=O)c1nc2ccccc2s1 (single isomer, unassigned)
Reply: 56

Query: Please look up its Ki: CCC[C@H](NC(=O)[C@H](CCc1ccccc1)NC(=O)CCc1ccccc1)C(=O)N[C@@H](CCCNC(=N)N)C(=O)c1nc2ccccc2s1
Reply: 2.3

Query: Please look up its Ki: C[C@@H](O)[C@H](NC(=O)[C@H](CCc1ccccc1)NC(=O)CCc1ccccc1)C(=O)N[C@@H](CCCNC(=N)N)C(=O)c1nc2ccccc2s1
Reply: 5.3

Query: Please look up its Ki: CC(C)CCC(=O)NC(Cc1ccc(O)cc1)C(=O)N[C@H](C(=O)N[C@@H](CCCNC(=N)N)C(=O)c1nc2ccccc2s1)C(C)C (single isomer, unassigned)
Reply: 6

Query: Please look up its Ki: CC(C)[C@H](NC(=O)[C@H](Cc1cccc(Cl)c1)NC(=O)[C@@H](N)Cc1ccc(O)cc1)C(=O)N[C@@H](CCCNC(=N)N)C(=O)c1nc2ccccc2s1
Reply: 5

Query: Please look up its Ki: N=C(N)NCCC[C@H](NC(=O)[C@H](Cc1ccc2ccccc2c1)NC(=O)C(Cc1ccc(O)cc1)NC(=O)[C@@H](N)Cc1ccc(O)cc1)C(=O)c1nc2ccccc2s1 (single isomer, unassigned)
Reply: 5.3

Query: Please look up its Ki: N=C(N)NCCC[C@H](NC(=O)[C@H](Cc1cscn1)NC(=O)C(Cc1ccc(O)cc1)NC(=O)[C@@H](N)Cc1ccc(O)cc1)C(=O)c1nc2ccccc2s1 (single isomer, unassigned)
Reply: 13

Query: Please look up its Ki: N=C(N)NCCC[C@H](NC(=O)[C@H](Cc1ccc(O)c(O)c1)NC(=O)C(Cc1ccc(O)cc1)NC(=O)[C@@H](N)Cc1ccc(O)cc1)C(=O)c1nc2ccccc2s1 (single isomer, unassigned)
Reply: 5
